# Measured target: human tissue nonspecific alkaline phosphatase (h-TNAP) (Homo sapiens)
# Sequence (P05186 18-524): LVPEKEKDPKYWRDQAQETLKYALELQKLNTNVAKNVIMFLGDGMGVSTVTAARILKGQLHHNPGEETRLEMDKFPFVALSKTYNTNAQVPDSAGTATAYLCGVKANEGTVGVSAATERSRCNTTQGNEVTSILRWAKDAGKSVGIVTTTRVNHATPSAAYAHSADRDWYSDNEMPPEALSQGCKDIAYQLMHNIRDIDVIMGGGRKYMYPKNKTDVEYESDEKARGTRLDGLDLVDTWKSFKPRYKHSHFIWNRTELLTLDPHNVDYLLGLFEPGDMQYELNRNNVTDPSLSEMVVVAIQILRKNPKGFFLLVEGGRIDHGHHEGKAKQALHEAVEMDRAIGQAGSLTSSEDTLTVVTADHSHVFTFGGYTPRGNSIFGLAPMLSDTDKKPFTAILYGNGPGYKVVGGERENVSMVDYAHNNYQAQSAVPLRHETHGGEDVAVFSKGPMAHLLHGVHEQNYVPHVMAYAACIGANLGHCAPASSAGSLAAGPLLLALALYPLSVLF
# Method notes: Alkaline phosphatase inhibition assay (h-TNAP), CDP-star luminescence
# Assay type: biochemical
# Condition description: IC50 ± SEM, n = 3; DEA buffer
Lab note: class by IC50, see range 1 = under 1 µM, range 2 = from 1 µM up to 2 µM, range 3 = 2 µM and over

Data request: Given `CCCS(=O)(=O)Oc1ccc2c3c(c(=O)oc2c1)CCCCC3` , name the class its IC50 places it in.
Data returned: range 2

Data request: Lab note: which band did `COc1cc2c3c(c(=O)oc2cc1OS(C)(=O)=O)CCCCCC3` land in?
Data returned: range 2

Data request: Lab log: `COc1cc2c3c(c(=O)oc2cc1OS(=O)(=O)c1ccc(C)cc1)CCCCC3` — assign IC50 category
Data returned: range 2

Data request: Lab log: `COc1cc2c3c(c(=O)oc2cc1OS(=O)(=O)c1ccc(C)cc1)CCCCCC3` — assign IC50 category
Data returned: range 1

Data request: Lab note: sort `Cc1ccc(S(=O)(=O)Oc2ccc3c4c(c(=O)oc3c2)CCCCC4)cc1` into the matching IC50 band.
Data returned: range 1

Data request: State the class of the molecule shown: `CCCS(=O)(=O)Oc1cc2oc(=O)c3c(c2cc1OC)CCCCC3`
Data returned: range 3

Data request: Band of `CCS(=O)(=O)Oc1ccc2c3c(c(=O)oc2c1)CCCCC3` ?
Data returned: range 3

Data request: For `Cc1ccc(S(=O)(=O)Oc2ccc3c4c(c(=O)oc3c2)CCCCCC4)cc1` , which IC50 bin applies?
Data returned: range 2

Data request: Tag the class for `CCCS(=O)(=O)Oc1ccc2c3c(c(=O)oc2c1)CCCCCC3`
Data returned: range 2
